System: HIV-1/LASV pseudovirus
Experiment: microbe, parasite or virus in culture
Type: cell-based
Conditions: 10 µM
result type: Inhibition HIV/LASV (%)
Response body: numeric value in %, unit text excluded.

The cases that follow already have their Inhibition HIV/LASV on record.
In [3]: df
Out[3]:
                                   molecule  recorded_result
0  COc1nc2ccccc2cc1C(c1ccccc1)n1c(=O)n(CCCN(C)C)c2ccccc21 (stereo not drawn)            87.77
1  COc1ccc(COc2nc3ccc(Br)cc3cc2-c2ccc(CN(C)C)cc2)cc1            87.40

Turning now to a further molecule:
Would you mind telling me what Inhibition HIV/LASV value was observed for COc1nc2ccc(Br)cc2cc1C(c1ccccc1)n1cc(CN(C)C)c2ccccc21 (stereo not drawn) ?
88.22

The origin of these recorded values is paper PMC6315506.
